- System: NCI-H226 lung
- test_description: NCI tumour cell line growth inhibition, 48 h
recorded_endpoint: TGI

For COS(C)(=O)=O , what is its reported TGI?
> 2 µM

Next entry: COc1cc2ncnc(Nc3ccc(Oc4ccnc(C)c4)c(C)c3)c2cc1NC(=O)CC1CCSS1 (stereo not drawn)
> 12.9 µM

Next entry: CC(O)(C#N)CC(O)(C(F)(F)Cl)C(F)(F)Cl (stereo not drawn)
> 10 µM

###

- Tested on: DU-145 prostate
- test_description: NCI tumour cell line growth inhibition, 48 h
Provide the recorded TGI for the entries that follow.

Recorded TGI for CN1C(=O)C(C(=O)Nc2ccccn2)C2C[C@@]1(C)Oc1ccccc12 (stereo partly drawn) with DU-145 prostate, please?
> 100 µM

Next entry: C#C[C@@]1(O)[C@@H](CO)O[C@@H](n2cc(C(F)(F)F)c3c(N)ncnc32)[C@@H]1O
> 100 µM

Next entry: O=C(c1ccc([N+](=O)[O-])cc1)C(Br)C(Br)c1ccnc2ccccc12 (stereo not drawn)
24.4 µM
